- Test system: CAKI-1 renal
- assay-comment: NCI-60 one-dose screen, 48 h (100 = growth as untreated, 0 = no growth, -100 = all killed)
- assay-context: 10 µM unless noted
The panel holds about 83,000 compounds, 20% with a hit somewhere; the sample as a whole holds those more often.
measured-parameter: growth (%)

- CCOC(=O)c1cc(/C(=N\O)c2cc(OC)c(OC)c(OC)c2)n2c(C)cccc12: 36
- O=C(CCCn1c(=O)c2sc3ccccc3c2n2nnc(-c3ccccc3)c12)NCCc1cnc[nH]1: 14.9
- COc1ccc(/C=c2\sc3n(c2=O)C2C(NN=3)N(C)C(=O)N2C)cc1 (stereo not drawn): 31.5
